Reported fraction unbound at 18 h, 5 µM is given for each of the following compounds.
# Assay Text: Protein binding in mouse plasma assessed as free fraction at 5 uM incubated for 18 hrs by LC-MS/MS analysis
# Format: ADME, cell-free

Answered examples (2):
# Compound, fraction unbound at 18 h, 5 µM
records = [
    ("NC(=O)c1ncc(N2CCCCC2)nc1Nc1ccc(C2CCN(C[C@@H]3CCN(c4ccc5c(c4)C(=O)N(C4CCC(=O)NC4=O)C5=O)C3)CC2)cc1 (stereo partly drawn)", "< 0.001"),
    ("COc1cc(-c2cn(C)c(=O)c3cnc(N4CCC4)cc23)cc(OC)c1CN1CCC(CN2CCC3(CC2)CN(c2ccc4c(c2)C(=O)N([C@H]2CCC(=O)NC2=O)C4)C3)CC1", 0.232),
]

Proceed to the following item.
Task item: # return recorded fraction unbound at 18 h, 5 µM for input "N#Cc1ccc(O[C@H]2CC[C@H](NC(=O)c3ccc(N4CCC(CN5CCN(c6cc7c(cc6F)C(=O)N([C@H]6CCC(=O)NC6=O)C7=O)CC5)CC4)nn3)CC2)cc1Cl"
Reply: < 0.001
